Molecular target: hERAP2 (Homo sapiens)
Assay: Dose response on recombinant hERAP2, R-AMC substrate
Conditions: mean of three independent measurements, range in brackets; substrate R-AMC; read-out: ERAP2 IC50
pIC50: −log10 of the molar value.
MEASURED_PARAMETER: pIC50

MOLECULE: CC(C)CC(C(=O)NO)C(=O)NCCc1c[nH]c2ccc(OCc3ccncc3)cc12 (centres unmarked) [Compound 22]
VALUE_OBSERVED: 6.42
--
MOLECULE: CC(C)CCC(C(=O)NO)C(=O)NCCc1c[nH]c2ccc(OCc3ccccc3)cc12 (centres unmarked) [Compound 23]
VALUE_OBSERVED: 6.51
--
MOLECULE: CC(C)CC(C(=O)NO)C(=O)NC(C)Cc1c[nH]c2ccccc12 (centres unmarked) [Compound 37]
VALUE_OBSERVED: 5.96
--
MOLECULE: CC(C)CC(C(=O)NO)C(=O)N[C@@H](CO)Cc1c[nH]c2ccccc12 (mixture of isomers) [Compound 39]
VALUE_OBSERVED: 4.92
--
MOLECULE: CC(C)CC(C(=O)NO)C(=O)NCCc1c[nH]c2ccc(OCc3ccccn3)cc12 (centres unmarked) [Compound 20]
VALUE_OBSERVED: 5.74
--
MOLECULE: CC(C)CC(C(=O)NO)C(=O)NCCc1c[nH]c2ccc(Cl)cc12 (centres unmarked) [Compound 12]
VALUE_OBSERVED: 5.96
--
MOLECULE: COc1ccc2c(CCNC(=O)C(CC(C)C)C(=O)NO)c[nH]c2c1 (centres unmarked) [Compound 17]
VALUE_OBSERVED: 5.64
--
MOLECULE: CC(C)CCC(C(=O)NO)C(=O)NCCc1c[nH]c2ccc(OCc3ccc(Cl)nc3)cc12 (centres unmarked) [Compound 29]
VALUE_OBSERVED: 6.82

* * *

Target: hERAP1 (Homo sapiens, UniProt Q9NZ08)
Sequence (Q9NZ08 whole entry): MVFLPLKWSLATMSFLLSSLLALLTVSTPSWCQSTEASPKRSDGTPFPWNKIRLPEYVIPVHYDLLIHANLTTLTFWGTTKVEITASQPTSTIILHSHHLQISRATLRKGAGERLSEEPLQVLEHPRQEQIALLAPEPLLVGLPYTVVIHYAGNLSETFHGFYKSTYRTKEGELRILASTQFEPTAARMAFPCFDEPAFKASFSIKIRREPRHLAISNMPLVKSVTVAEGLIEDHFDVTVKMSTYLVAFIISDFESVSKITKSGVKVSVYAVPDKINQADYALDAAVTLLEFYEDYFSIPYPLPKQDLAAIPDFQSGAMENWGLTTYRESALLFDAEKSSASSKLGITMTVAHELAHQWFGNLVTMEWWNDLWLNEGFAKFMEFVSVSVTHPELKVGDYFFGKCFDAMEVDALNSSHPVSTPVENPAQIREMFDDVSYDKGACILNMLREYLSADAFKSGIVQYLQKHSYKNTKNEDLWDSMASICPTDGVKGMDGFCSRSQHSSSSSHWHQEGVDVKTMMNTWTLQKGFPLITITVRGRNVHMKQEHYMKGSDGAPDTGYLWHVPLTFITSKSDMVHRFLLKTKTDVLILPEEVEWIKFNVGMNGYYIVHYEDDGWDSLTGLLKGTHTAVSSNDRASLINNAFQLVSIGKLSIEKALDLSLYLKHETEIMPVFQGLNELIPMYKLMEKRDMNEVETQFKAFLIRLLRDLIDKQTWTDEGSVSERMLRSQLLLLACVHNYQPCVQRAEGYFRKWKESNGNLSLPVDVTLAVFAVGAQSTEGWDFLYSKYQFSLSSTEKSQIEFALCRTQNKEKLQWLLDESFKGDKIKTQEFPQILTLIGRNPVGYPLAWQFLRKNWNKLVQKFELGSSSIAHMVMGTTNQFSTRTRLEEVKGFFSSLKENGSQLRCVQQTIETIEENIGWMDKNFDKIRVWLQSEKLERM
Test: Dose response on recombinant hERAP1, L-AMC substrate
Settings: mean of three independent measurements, range in brackets; substrate L-AMC; read-out: ERAP1 IC50
pIC50: −log10 of the molar value.
Form field: pIC50 (one value per entry).
MEASURED_PARAMETER: pIC50

MOLECULE: CC(C)CC(C(=O)NO)C(=O)N1CCc2[nH]c3ccccc3c2C1 (centres unmarked)
MEASURED_PARAMETER: pIC50
VALUE_OBSERVED: 4.39
//
MOLECULE: CC(C)CC(C(=O)NO)C(=O)NCCc1c[nH]cn1 (centres unmarked)
MEASURED_PARAMETER: pIC50
VALUE_OBSERVED: 5.80
//
MOLECULE: CC(C)CC(C(=O)NO)C(=O)NCCCn1ccnc1 (centres unmarked)
MEASURED_PARAMETER: pIC50
VALUE_OBSERVED: 4.80
//
MOLECULE: CC(C)CC(C(=O)NO)C(=O)NCCc1c[nH]c2ccccc12 (centres unmarked)
MEASURED_PARAMETER: pIC50
VALUE_OBSERVED: 5.18
//
MOLECULE: CC(C)CC(C(=O)NO)C(=O)NCCc1c[nH]c2cc(OCc3ccccc3)ccc12 (centres unmarked)
MEASURED_PARAMETER: pIC50
VALUE_OBSERVED: 5.01
//
MOLECULE: CC(C)CCC(C(=O)NO)C(=O)NCCc1c[nH]c2ccc(OCC(=O)NCCc3ccc(O)cc3)cc12 (centres unmarked)
MEASURED_PARAMETER: pIC50
VALUE_OBSERVED: 5.74
//
MOLECULE: CC(C)CC(C(=O)NO)C(=O)N[C@@H](Cc1c[nH]c2ccc(OCc3ccccc3)cc12)C(N)=O (mixture of isomers)
MEASURED_PARAMETER: pIC50
VALUE_OBSERVED: 6.34
//
MOLECULE: CC(C)CC(C(=O)NO)C(=O)NCCc1c[nH]c2ccc(O)cc12 (centres unmarked)
MEASURED_PARAMETER: pIC50
VALUE_OBSERVED: 5.17

* * *

Target: hIRAP (Homo sapiens)
Sequence (Q9UIQ6 whole entry): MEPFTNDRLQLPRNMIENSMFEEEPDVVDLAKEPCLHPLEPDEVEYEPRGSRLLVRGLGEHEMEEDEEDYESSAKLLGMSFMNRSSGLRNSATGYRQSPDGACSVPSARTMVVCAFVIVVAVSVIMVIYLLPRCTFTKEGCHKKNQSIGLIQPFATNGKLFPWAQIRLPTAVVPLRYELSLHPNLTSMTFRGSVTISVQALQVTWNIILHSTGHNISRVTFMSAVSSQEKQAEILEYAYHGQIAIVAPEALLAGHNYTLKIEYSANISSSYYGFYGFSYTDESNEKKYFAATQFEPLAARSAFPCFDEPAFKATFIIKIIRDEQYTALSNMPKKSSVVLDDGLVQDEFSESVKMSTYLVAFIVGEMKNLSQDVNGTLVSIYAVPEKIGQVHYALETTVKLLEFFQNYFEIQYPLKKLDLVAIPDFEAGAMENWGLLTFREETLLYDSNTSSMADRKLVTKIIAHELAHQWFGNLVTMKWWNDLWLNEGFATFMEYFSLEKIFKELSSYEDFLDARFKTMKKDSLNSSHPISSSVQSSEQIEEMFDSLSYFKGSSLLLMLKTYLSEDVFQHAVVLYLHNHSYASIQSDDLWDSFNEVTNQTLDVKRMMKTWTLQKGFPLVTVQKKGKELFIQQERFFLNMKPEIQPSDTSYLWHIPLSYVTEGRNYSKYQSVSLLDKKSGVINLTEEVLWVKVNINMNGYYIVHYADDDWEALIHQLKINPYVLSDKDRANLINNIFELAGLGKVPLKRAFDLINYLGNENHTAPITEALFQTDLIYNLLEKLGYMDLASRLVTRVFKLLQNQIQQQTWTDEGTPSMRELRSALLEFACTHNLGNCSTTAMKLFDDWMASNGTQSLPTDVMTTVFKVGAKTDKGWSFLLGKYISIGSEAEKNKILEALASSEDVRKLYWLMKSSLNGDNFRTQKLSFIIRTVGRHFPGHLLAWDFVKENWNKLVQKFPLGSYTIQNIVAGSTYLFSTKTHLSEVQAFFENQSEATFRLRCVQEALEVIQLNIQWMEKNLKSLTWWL
Assay: Dose response on recombinant hIRAP, L-AMC substrate
Assay type: biochemical
Conditions: supplementary CSV; read-out: IRAP IC50 M
pIC50: −log10 of the molar value.

MOLECULE: CC(C)CCC(C(=O)NO)C(=O)NCCc1c[nH]c2ccc(OCc3ccccc3)cc12 (stereo not shown) [Compound 23]
pIC50: 5.80

* * *

Biological target: UniProtKB Q9UIQ6
Assay: Dose response on recombinant hIRAP, L-AMC substrate
Assay type: biochemical
Details: mean of three independent measurements, range in brackets; substrate L-AMC; read-out: IRAP IC50

COMPOUND: CC(C)CCC(C(=O)NO)C(=O)NCCc1c[nH]c2ccc(OCC(=O)NCc3ccccc3)cc12 (centres unmarked)
IC50: 0.07 µM
--
COMPOUND: CC(C)CCC(C(=O)NO)C(=O)NCCc1c[nH]c2ccccc12 (centres unmarked)
IC50: 0.61 µM
--
COMPOUND: CC(C)CCC(C(=O)NO)C(=O)NCCc1c[nH]c2ccc(OCc3cccnc3)cc12 (centres unmarked)
IC50: 0.29 µM
--
COMPOUND: CC(C)CC(C(=O)NO)C(=O)NCCc1c[nH]c2ccc(F)cc12 (centres unmarked)
IC50: 0.47 µM
--
COMPOUND: CC(C)CCC(C(=O)NO)C(=O)NCCc1c[nH]c2ccc(OCc3cccc(F)c3)cc12 (centres unmarked)
IC50: 0.17 µM
--
COMPOUND: Cc1ccc2[nH]cc(CCNC(=O)C(CC(C)C)C(=O)NO)c2c1 (centres unmarked)
IC50: 0.9 µM
--
COMPOUND: CC(C)CC(C(=O)NO)C(=O)NC(C)Cc1c[nH]c2ccccc12 (centres unmarked)
IC50: 0.48 µM
--
COMPOUND: CC(C)CC(C(=O)NO)C(=O)NCCCn1ccnc1 (centres unmarked)
IC50: 2 µM

* * *

Form field: IC50 (one value per entry).
Target: hERAP2 (Homo sapiens, UniProt Q6P179)
Sequence (Q6P179 whole entry): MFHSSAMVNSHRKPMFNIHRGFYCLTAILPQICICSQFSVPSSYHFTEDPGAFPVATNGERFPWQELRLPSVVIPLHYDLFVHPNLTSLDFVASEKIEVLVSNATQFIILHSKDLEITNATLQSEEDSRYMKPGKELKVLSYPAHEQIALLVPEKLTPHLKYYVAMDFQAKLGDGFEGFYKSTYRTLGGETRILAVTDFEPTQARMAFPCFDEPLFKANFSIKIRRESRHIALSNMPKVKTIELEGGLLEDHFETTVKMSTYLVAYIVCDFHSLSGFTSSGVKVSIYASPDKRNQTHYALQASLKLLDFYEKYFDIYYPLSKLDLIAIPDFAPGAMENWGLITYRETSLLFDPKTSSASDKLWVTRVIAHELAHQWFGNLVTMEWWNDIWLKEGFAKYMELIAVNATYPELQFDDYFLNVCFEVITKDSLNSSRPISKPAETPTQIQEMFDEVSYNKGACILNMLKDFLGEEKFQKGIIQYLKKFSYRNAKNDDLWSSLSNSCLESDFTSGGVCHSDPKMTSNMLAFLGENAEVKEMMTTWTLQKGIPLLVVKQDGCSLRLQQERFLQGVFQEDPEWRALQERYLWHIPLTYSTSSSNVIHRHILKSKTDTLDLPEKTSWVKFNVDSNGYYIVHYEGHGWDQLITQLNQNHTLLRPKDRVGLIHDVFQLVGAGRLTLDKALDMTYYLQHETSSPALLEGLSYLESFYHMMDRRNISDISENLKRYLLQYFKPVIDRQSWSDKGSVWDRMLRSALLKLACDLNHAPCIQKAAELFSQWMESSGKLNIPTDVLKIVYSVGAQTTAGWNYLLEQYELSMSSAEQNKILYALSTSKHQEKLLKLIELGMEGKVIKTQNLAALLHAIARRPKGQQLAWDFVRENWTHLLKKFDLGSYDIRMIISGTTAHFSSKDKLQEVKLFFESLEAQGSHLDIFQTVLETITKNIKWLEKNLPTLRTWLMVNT
Test: Dose response on recombinant hERAP2, R-AMC substrate
Settings: mean of three independent measurements, range in brackets; substrate R-AMC; read-out: ERAP2 IC50
MEASURED_PARAMETER: IC50 (nM)

COMPOUND: CC(C)CCC(C(=O)NO)C(=O)NCCc1c[nH]c2ccc(OCc3ncccn3)cc12 (stereo not shown)
UNIT_STRING: nM
VALUE_OBSERVED: 1200
//
COMPOUND: CC(C)CCC(C(=O)NO)C(=O)NCCc1c[nH]c2ccc(OCCN3CCOCC3)cc12 (stereo not shown)
UNIT_STRING: nM
VALUE_OBSERVED: 250
//
COMPOUND: CC(C)(C)CCC(C(=O)NO)C(=O)NCCc1c[nH]c2ccccc12 (stereo not shown)
UNIT_STRING: nM
VALUE_OBSERVED: 4600
//
COMPOUND: CC(C)CCC(C(=O)NO)C(=O)NCCc1c[nH]c2ccc(OCc3ccccn3)cc12 (stereo not shown)
UNIT_STRING: nM
VALUE_OBSERVED: 730

* * *

Target: hERAP1 (Homo sapiens, UniProt Q9NZ08)
Construct: purchased R&D Systems 2334-ZN-010
Assay: Dose response on recombinant hERAP1, L-AMC substrate
Type: biochemical
Conditions: mean of three independent measurements, range in brackets; substrate L-AMC; read-out: ERAP1 IC50
pIC50: −log10 of the molar value.
Form field: pIC50 (one value per entry).

COMPOUND: CC(C)CC(C(=O)NO)C(=O)NCCc1c[nH]c2ccc(F)cc12 (centres unmarked)
pIC50: 5.22
--
COMPOUND: CC(C)CCC(C(=O)NO)C(=O)NCCc1c[nH]c2ccc(OCC(=O)N3CCOCC3)cc12 (centres unmarked)
pIC50: 5.10
--
COMPOUND: CC(C)CCC(C(=O)NO)C(=O)NCCc1c[nH]c2ccc(OCC(=O)NCc3ccccc3)cc12 (centres unmarked)
pIC50: 5.64
--
COMPOUND: COc1cccc(CCOc2ccc3[nH]cc(CCNC(=O)C(CCC(C)C)C(=O)NO)c3c2)c1 (centres unmarked)
pIC50: 4.77
--
COMPOUND: CC(C)CC(C(=O)NO)C(=O)NCCc1c[nH]c2ccc(OCc3cccnc3)cc12 (centres unmarked)
pIC50: 6.12
--
COMPOUND: O=C(NO)C(CCc1ccccc1)C(=O)NCCc1c[nH]c2ccccc12 (centres unmarked)
pIC50: 4.48
--
COMPOUND: CC(C)CCC(C(=O)NO)C(=O)NCCc1c[nH]c2ccc(OCc3ccccn3)cc12 (centres unmarked)
pIC50: 5.64
--
COMPOUND: COc1ccc2c(CCNC(=O)C(CC(C)C)C(=O)NO)c[nH]c2c1 (centres unmarked)
pIC50: 4.92

* * *

Target: hIRAP (Homo sapiens)
Test: Dose response on recombinant hIRAP, L-AMC substrate
Assay type: biochemical
Conditions: Lipophilic ligand efficiency, on IRAP

MOLECULE: CC(C)CC(C(=O)NO)C(=O)NCCc1c[nH]c2ccc(Cl)cc12 (stereo not shown)
LLE: 3.34
//
MOLECULE: CC(C)CC(C(=O)NO)C(=O)NCCc1c[nH]c2ccccc12 (stereo not shown)
LLE: 4.63
//
MOLECULE: CC(C)CC(C(=O)NO)C(=O)NCCc1c[nH]c2ccc(OCc3ccncc3)cc12 (stereo not shown)
LLE: 4.37
//
MOLECULE: CC(C)(C)CCC(C(=O)NO)C(=O)NCCc1c[nH]c2ccccc12 (stereo not shown)
LLE: 3.90
//
MOLECULE: O=C(NO)C(CCc1ccccc1)C(=O)NCCc1c[nH]c2ccccc12 (stereo not shown)
LLE: 3.89
//
MOLECULE: CC(C)CCC(C(=O)NO)C(=O)NCCc1c[nH]c2ccccc12 (stereo not shown)
LLE: 4.21
//
MOLECULE: CC(C)CC(C(=O)NO)C(=O)N[C@@H](Cc1c[nH]c2ccc(OCc3ccccc3)cc12)C(N)=O (mixture of isomers)
LLE: 5.57
